Test system: MDA-MB-435 melanoma
Experiment: NCI-60 one-dose screen, 48 h (100 = growth as untreated, 0 = no growth, -100 = all killed)
Details: 10 µM unless noted
About 83,000 compounds went through this panel and 20% of them were active in at least one assay; those are over-represented in the sample as a whole.
Examples of molecules with documented growth follow.

[
  {
    "molecule": "Cn1cc(-c2csc(-c3cn(CCNC(=O)OC(C)(C)C)c4ccccc34)n2)c2cccnc21",
    "scale.unit": "%",
    "growth": 74.5
  },
  {
    "molecule": "CC1(C)NC2=C(C(Nc3cccnc3)N1)C(c1ccc([N+](=O)[O-])cc1)C(C(=O)c1ccc(N=[N+]=[N-])cc1)O2 (configuration not stated)",
    "scale.unit": "%",
    "growth": 105
  },
  {
    "molecule": "COc1ccc(NC(=S)N/N=C/c2ccccc2SSCCC(=O)OC[C@H]2O[C@H](O)[C@H](O)[C@@H](O)[C@@H]2O)cc1",
    "scale.unit": "%",
    "growth": 52.8
  },
  {
    "molecule": "Cc1csc(-c2ccc3c(c2)COC3(CCCN(C)C)c2ccc(F)cc2)c1 (configuration not stated)",
    "scale.unit": "%",
    "growth": -30.3
  },
  {
    "molecule": "C/C(=C(/c1ccccc1)c1ccc(N2C(=O)c3cccc4c(NCc5ccccc5)ccc(c34)C2=O)cc1)c1ccccc1",
    "scale.unit": "%",
    "growth": 102
  },
  {
    "molecule": "COc1cnc2c(c1)C(=O)c1c-2n(CCCN2CCN(CCO)CC2)c(=O)c2cc([N+](=O)[O-])ccc12",
    "scale.unit": "%",
    "growth": 40.8
  },
  {
    "molecule": "COc1ccc2c3c(c4ccccc4cc13)C(=O)N(CCN(C)CCN)C2=O",
    "scale.unit": "%",
    "growth": -92.6
  },
  {
    "molecule": "Cc1cc(N2CCCC2)nc(N(CCNc2ccnc3cc(Cl)ccc23)Cc2ccco2)n1",
    "scale.unit": "%",
    "growth": 44
  },
  {
    "molecule": "CC(=O)OC[C@]12CC[C@@H](/C(C)=N/O)[C@@H]1[C@H]1CC[C@@H]3[C@@]4(C)CCCNC(C)(C)[C@@H]4CC[C@@]3(C)[C@]1(C)CC2",
    "scale.unit": "%",
    "growth": 81.8
  },
  {
    "molecule": "O=C1C(Cl)=C(Nc2ccc(S(=O)(=O)c3ccc(NC4=C(Cl)C(=O)c5ccccc5C4=O)cc3)cc2)C(=O)c2ccccc21",
    "scale.unit": "%",
    "growth": 10.5
  },
  {
    "molecule": "CN(C)c1ccc(N)c2ccccc12",
    "scale.unit": "%",
    "growth": -91.3
  },
  {
    "molecule": "Cc1oc(-c2ccccc2Cl)cc1C(=O)Nc1ccc(S(N)(=O)=O)cc1",
    "scale.unit": "%",
    "growth": 102
  },
  {
    "molecule": "N#CCCCCCn1c2ccccc2c2c3[nH]c(=O)[nH]c(=O)c3c3c4ccccc4n(CCCCCC#N)c3c21",
    "scale.unit": "%",
    "growth": 36.8
  },
  {
    "molecule": "CC[C@H](CC[C@@H](C)[C@H]1CC[C@H]2[C@@H]3/C(=C/c4cccnc4)C(=O)C4=CC(=O)CC[C@]4(C)[C@H]3CC[C@]12C)C(C)C",
    "scale.unit": "%",
    "growth": 99.7
  },
  {
    "molecule": "COc1cc(/C=N/NC(=S)NNC(=S)NC2CCCCC2)cc(OC)c1OC",
    "scale.unit": "%",
    "growth": 98.8
  },
  {
    "molecule": "Cc1ccc(Nc2c(C(N)=O)cnc3ccc(S(=O)(=O)Nc4cc(C)on4)cc23)cc1",
    "scale.unit": "%",
    "growth": 103
  },
  {
    "molecule": "O=S(=O)(NCCNc1cc(-c2cn(-c3ccccc3)nc2-c2cccc(O)c2)ccn1)c1ccc(Br)cc1",
    "scale.unit": "%",
    "growth": 22.4
  },
  {
    "molecule": "CCNCCCn1c2c(c3ccc([N+](=O)[O-])cc3c1=O)C(=O)c1cc(OC)cnc1-2",
    "scale.unit": "%",
    "growth": -54.4
  },
  {
    "molecule": "O=C(O)c1cccc2c1Cc1cc([N+](=O)[O-])ccc1-2",
    "scale.unit": "%",
    "growth": 108
  },
  {
    "molecule": "Cc1ccc(C)c2c1CCC2C(C)C (configuration not stated)",
    "scale.unit": "%",
    "growth": 108
  },
  {
    "molecule": "CC1c2ccccc2N(S(=O)(=O)c2ccccc2)C1C (configuration not stated)",
    "scale.unit": "%",
    "growth": 6.95
  },
  {
    "molecule": "COc1ccc2c(c1)c(-c1nc(-c3c[nH]c4ncccc34)cs1)cn2CCNC(=O)OC(C)(C)C",
    "scale.unit": "%",
    "growth": 94.7
  },
  {
    "molecule": "COc1cc2ncnc(Nc3ccc(OCc4cccc(F)c4)c(Cl)c3)c2cc1NC(=O)C1CCCC1",
    "scale.unit": "%",
    "growth": 89.4
  },
  {
    "molecule": "Cn1cnc2c1c(=O)n(CCC(=O)Nc1ccc(F)cc1)c(=O)n2C",
    "scale.unit": "%",
    "growth": 108
  },
  {
    "molecule": "CCN(CC)C(=O)CCCCCn1c2ccccc2c2c3c(c4c5ccccc5[nH]c4c21)C(=O)N(O)C3=O",
    "scale.unit": "%",
    "growth": 25.3
  },
  {
    "molecule": "Cc1cc2nc3c4cc([N+](=O)[O-])cc([N+](=O)[O-])c4n(CCN(C)C)c3nc2cc1C",
    "scale.unit": "%",
    "growth": 92.1
  },
  {
    "molecule": "CCc1ccccc1NC(=O)c1sc2nc3c(cc2c1N)CCCC3",
    "scale.unit": "%",
    "growth": 1.18
  },
  {
    "molecule": "COc1ccc(C2c3ccccc3NC(=O)N2C2CCN(C)CC2)c(OC)c1 (configuration not stated)",
    "scale.unit": "%",
    "growth": 72
  },
  {
    "molecule": "COC(=O)[C@@H]1[C@H]2C[C@H]3c4[nH]c5cc(OC)ccc5c4CCN3C[C@@H]2C[C@H](OC(=O)/C=C/c2ccnc(OC)c2)[C@H]1OC",
    "scale.unit": "%",
    "growth": 97.5
  },
  {
    "molecule": "Cn1cc(-c2nc(-c3c[nH]c4ncccc34)cs2)c2cc(F)ccc21",
    "scale.unit": "%",
    "growth": 0.641
  },
  {
    "molecule": "CC(C)(C)c1cc(-n2c(-c3ccc(Cl)cc3)nc3cc(C(=O)Nc4ccc(Cl)cc4)ccc32)n[nH]1",
    "scale.unit": "%",
    "growth": 73.3
  },
  {
    "molecule": "Cc1ccc(Sc2sc(-c3ccccc3)nc2[P+](c2ccccc2)(c2ccccc2)c2ccccc2)cc1",
    "scale.unit": "%",
    "growth": -16.3
  },
  {
    "molecule": "O=C1/C(=C\\C(Cl)=C/c2ccc([N+](=O)[O-])cc2)SC(=S)N1CCc1ccc(O)cc1",
    "scale.unit": "%",
    "growth": -1.96
  },
  {
    "molecule": "C(=C\\c1c[nH]c2ccccc12)/c1ccc2ccccc2n1",
    "scale.unit": "%",
    "growth": 93
  },
  {
    "molecule": "CC1(c2ccccc2)OC1C(=O)O (configuration not stated)",
    "scale.unit": "%",
    "growth": 98.7
  },
  {
    "molecule": "COc1ccc(/C=C/C(=O)c2ccc([N+](=O)[O-])cc2)cc1",
    "scale.unit": "%",
    "growth": 106
  },
  {
    "molecule": "Cn1c(=O)c2c(ncn2CCC(=O)Nc2ccc(F)cc2)n(C)c1=O",
    "scale.unit": "%",
    "growth": 110
  }
]
